Taken from PubChem BioAssay (NCATS).

test system: CP211; experiment: qHTS profiling for inhibitors of Plasmodium falciparum proliferation (AID 504749); further: nearly all actives have a fitted effect of over 60% in size; further: potency means the concentration at half of the fitted maximal effect; settings: P. falciparum in erythrocytes, SYBR Green DNA, 72 h; series mostly up to 28.7 µM
Inconclusive results are not listed. Calls of active or inactive are those of the source. The call rests on the fitted dose curve; in most records, active means well fitted inhibition curve with a large enough effect; inconclusive means small, poorly fitted or top-dose-only effect; inactive means flat fitted curve, though single readings scatter.
Measured property: Potency

Before answering, review these 7 worked examples.
compound=Cc1cc(C2CCCCC2)n(O)c(=O)c1 measured_property=Potency result="6.42 µM (active)"
compound="CCC1=C(C)CN(C(=O)NCCc2ccc(S(=O)(=O)NC(=O)NC3CCC(C)CC3)cc2)C1=O (stereo not drawn)" measured_property=Potency result=inactive
compound=CC1(C)NC(=O)N(c2ccc([N+](=O)[O-])c(C(F)(F)F)c2)C1=O measured_property=Potency result=inactive
compound="COc1ccc(C2(C#N)CCC(C(=O)O)CC2)cc1OC1CCCC1 (stereo not drawn)" measured_property=Potency result=inactive
compound="Nc1ccn([C@@H]2O[C@H](CO)[C@@H](O)C2O)c(=O)n1 (stereo partly drawn)" measured_property=Potency result=inactive
compound="COC(=O)C1=C(C)NC(C)=C(C(=O)OCCCN2CCC(c3ccccc3)(c3ccccc3)CC2)C1c1cccc([N+](=O)[O-])c1 (stereo not drawn)" measured_property=Potency result="6.01 µM (active)"
compound=O=P(O)(O)C(O)(Cn1ccnc1)P(=O)(O)O measured_property=Potency result=inactive

Query :: Determine from records and report Potency for CNC[C@H](O)c1ccc(O)c(O)c1
Result :: inactive

* * *

test: NS1 protein of Zika virus - qHTS assay to identify small molecule inhibitors in human HEK 293 cells (AID 1347053); conditions: HEK293 ZIKV MR766 infection, NS1 TR-FRET, 24 h; series mostly up to 46.1 µM; further: nearly all actives have a fitted effect of over 55% in size
Results filed as inconclusive are left out. Calls of active or inactive are those of the source. Calls come from the whole dose curve; as a rule, active = well fitted inhibition curve with a large enough effect; inconclusive = small, poorly fitted or top-dose-only effect; inactive = no such curve, though single readings can be large or run the other way.
Could you please pick one outcome from this set? yes = active, no = inactive

mol_smiles=N[C@@H](Cc1cc(I)c(Oc2cc(I)c(O)c(I)c2)c(I)c1)C(=O)O label_value=no

Query :: // return assay outcome for O=c1c(O)c(-c2cc(O)c(O)c(O)c2)oc2cc(O)cc(O)c12
Result :: no

Query :: Could you please tell me the result logged for CCN(CC)C(=S)SSC(=S)N(CC)CC in this assay?
Result :: yes

* * *

experiment: qHTS assay for measurement of the activity of small molecule inhibitors on Zika virus induced Caspase-3 activity in human astrocytoma cells (AID 1224859); settings: SNB-19 ZIKV-induced caspase-3/7, luminescence, 6 h; series mostly up to 45.7 µM
The source made the active and inactive calls. Calls come from the whole dose curve; as a rule, active = well fitted inhibition curve with a large enough effect; inconclusive = small, poorly fitted or top-dose-only effect; inactive = no such curve, though single readings can be large or run the other way.
Can you answer with just one of these options? active, inactive

Record excerpt, results attached:
molecule=O=C1c2ccccc2-c2n[nH]c3cccc1c23 label_value=inactive
molecule="CCCCN(CCCC)CCC(O)c1cc2c(Cl)cc(Cl)cc2c2cc(C(F)(F)F)ccc12 (configuration not stated)" label_value=inactive
molecule=CCc1nc(N)nc(N)c1-c1ccc(Cl)cc1 label_value=inactive
molecule="COC(=O)C1=C(C)NC(C)=C(C(=O)OC(C)C)C1c1cccc2nonc12 (configuration not stated)" label_value=inactive
molecule=O=c1ccc2ccc(O)c(O)c2o1 label_value=inactive
molecule=CN(C)[C@@H](CCOc1cccc2ccccc12)c1ccccc1 label_value=inactive
molecule="CCC(C)(Oc1ccc(C2(c3ccc(OC(C)(CC)C(=O)O)cc3)CCCCC2)cc1)C(=O)O (configuration not stated)" label_value=inactive
molecule=CN(C)c1ccc2nc3ccc(=[N+](C)C)cc-3sc2c1 label_value=inactive
molecule=Cc1c(C(=O)NN2CCCCC2)nn(-c2ccc(Cl)cc2Cl)c1-c1ccc(Cl)cc1 label_value=inactive
molecule="COC(=O)C1=C(C)NC(C)=C(C(=O)OCCCN2CCC(c3ccccc3)(c3ccccc3)CC2)C1c1cccc([N+](=O)[O-])c1 (configuration not stated)" label_value=inactive

Query :: // outcome(item) with item = c1ccc2[nH]c(-c3cscn3)nc2c1
Result :: active

Query :: Tell me the assay call for Nc1nc(OCc2ccccc2)c2[nH]cnc2n1 please.
Result :: inactive

Query :: How was COc1cc2c(N3CCN(C(=O)Nc4ccc(OC(C)C)cc4)CC3)ncnc2cc1OCCCN1CCCCC1 classified in this test?
Result :: inactive

Query :: Fill in: this test's call for N[C@@H](Cc1cc(I)c(Oc2cc(I)c(O)c(I)c2)c(I)c1)C(=O)O is ___
Result :: inactive

Query :: Fill in: this test's call for CS(=O)(=O)OCCCCOS(C)(=O)=O is ___
Result :: inactive

Query :: What did this assay record as the result for CC(C)c1nc(CN(C)C(=O)N[C@H](C(=O)N[C@@H](Cc2ccccc2)C[C@H](O)[C@H](Cc2ccccc2)NC(=O)OCc2cncs2)C(C)C)cs1 ?
Result :: inactive

Query :: GET /call?item= Cc1cc(O)c2c(c1)C(=O)c1cc(O)cc(O)c1C2=O returns the recorded outcome of this test.
Result :: active

* * *

assay: qHTS of pediatric cancer cell lines to identify multiple opportunities for drug repurposing: Primary screen for RD cells (AID 1347104); conditions: RD rhabdomyosarcoma viability, CellTiter-Glo luminescence, 48 h; series mostly up to 46 µM;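 further: plate controls were DMSO for no effect and bortezomib for full effect; nearly all actives have a fitted effect of over 55% in size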
Inconclusive results are not listed. Active and inactive are the calls of the source. Calls follow the shape of the dose curve; as a rule, active = well fitted cell-killing curve with a large enough effect; inconclusive = small, poorly fitted or top-dose-only effect; inactive = flat fitted curve, though single readings scatter. Peptide text beside a SMILES is read from it.
Write down the outcome that applies. Available outcomes: active, inactive

These recorded examples may help you get a feel for the data.
compound=O=C(O)c1cn(-c2ccc(F)cc2)c2cc(N3CCNCC3)c(F)cc2c1=O label_value=inactive
compound="CCC(C)(Oc1ccc(C2(c3ccc(OC(C)(CC)C(=O)O)cc3)CCCCC2)cc1)C(=O)O (stereo unspecified)" label_value=inactive
compound=CCOC(=O)C1=C(O)C(=O)N(Cc2ccccc2)C1 label_value=inactive
compound="COC(=O)[C@H](Cc1ccccc1)NC(=O)[C@@H](N)CC(=O)O (H-Asp-Phe-OMe)" label_value=inactive
compound=COc1cc(OC)c(C(=O)CCCN2CCCC2)c(OC)c1 label_value=inactive

Okay, next one:
Query :: For C[C@@H](N)C1CCC(C(=O)Nc2ccncc2)CC1 (stereo partly specified) , what call appears in the results of this test?
Result :: inactive

* * *

experiment: Quantitative High-Throughput drug screen in 47 multiple myeloma cell lines against the NCATS MIPE library collection: KHM11_PLB cell viability assay (AID 1918962); settings: KHM11 myeloma cell viability, CellTiter-Glo ATP luminescence, 48 h; series mostly up to 45.8 µM; further: nearly all actives have a fitted effect of over 35% in size
Records with an inconclusive call do not appear. Activity calls are given as the source filed them. Calls follow the shape of the dose curve; as a rule, active = well fitted cell-killing curve with a large enough effect; inconclusive = small, poorly fitted or top-dose-only effect, or effect the other way; inactive = no such curve, though single readings can be large or run the other way.
Classes to choose from: true (1) = active, false (0) = inactive

As a guide, the following entries are already answered.
compound="COC(=O)C1=C(C)NC(C)=C(C(=O)OCCCN2CCC(c3ccccc3)(c3ccccc3)CC2)C1c1cccc([N+](=O)[O-])c1 (centres undefined)" label_value="false (0)"
compound=Nc1nc(Cl)nc2c1ncn2[C@H]1C[C@H](O)[C@@H](CO)O1 label_value="true (1)"
compound=O=C(CCc1ccc(O)cc1)c1c(O)cc(O)cc1O label_value="true (1)"
compound=Cc1nc2n(c(=O)c1CCN1CCC(c3noc4cc(F)ccc34)CC1)CCCC2 label_value="false (0)"
compound=CN1C(C(=O)Nc2ccccn2)=C(O)c2sccc2S1(=O)=O label_value="false (0)"
compound="CCOC(=O)C(C)Oc1cccc2c(=O)n(CC(=O)Nc3ccc4c(c3)OCCO4)ccc12 (centres undefined)" label_value="false (0)"
compound=Cc1cc(=O)c2c(O)c3c(O)cc(=O)c4c3c3c(cc(O)c1c23)C(C)(C)C=4O label_value="true (1)"
compound=Nc1cc(C(Cl)=C(Cl)Cl)c(S(N)(=O)=O)cc1S(N)(=O)=O label_value="false (0)"

Now for a further compound.
Query :: Would you mind telling me which call this test gave CCc1nc(N)nc(N)c1-c1ccc(Cl)cc1 ?
Result :: false (0)

* * *

assay: qHTS Assay for Identifying Gametocytocidal Compounds (AID 743244);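 further: on the % scale 0 is the no-effect control and ±100 the full control effect; actives lower the fluorescent signal which means gametocytes are killed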; conditions: P. falciparum 3D7 stage III-V gametocytes, alamarBlue, 72 h; stronger effect = lower value
Records with an inconclusive call do not appear.
Measured property: max response (%)
// note: answer is a bare numeric in %

molecule=Cc1cc2c(s1)Nc1ccccc1N=C2N1CCN(C)CC1 result_number=2.02
molecule=Cc1cccc(C#Cc2ccccc2)n1 result_number=7.87
molecule=NS(=O)(=O)c1cc(C(=O)O)c(NCc2ccco2)cc1Cl result_number=3.33
molecule=COC1=C(OC)C(=O)C(CCCCCCCCCCO)=C(C)C1=O result_number=-5.2
molecule=Cc1nc(-c2ccc(OCC(C)C)c(C#N)c2)sc1C(=O)O result_number=55.3

Query :: Please look at this molecule and report its max response: O=C1c2c(O)cc(O)cc2OC(c2ccc(O)c(O)c2)C1O (configuration not stated)
Result :: -8.7

Query :: Recall and state the measured max response for CCCCC(CC)COC(=O)C(C#N)=C(c1ccccc1)c1ccccc1 (configuration not stated) .
Result :: 17.2

Query :: Query max response for CC[C@]1(O)C[C@H]2CN(CCc3c([nH]c4ccccc34)[C@@](C(=O)OC)(c3cc4c(cc3OC)N(C=O)[C@H]3[C@@](O)(C(=O)OC)[C@H](OC(C)=O)[C@]5(CC)C=CCN6CC[C@]43[C@@H]65)C2)C1
Result :: 24.7

Query :: Provide measured max response value, entry: C=CCc1cc(OC)c(O)c(C(=O)NCCO)c1
Result :: -5.25

Query :: Return reported max response. Input molecule: COCCCOc1ccnc(CS(=O)c2nc3ccccc3[nH]2)c1C (configuration not stated)
Result :: 2.05

Query :: Read the entry Oc1ccc(OCc2ccccc2)cc1 and write its reported max response.
Result :: 3.93

Query :: Indicate its recorded max response; the molecule in question is CC1(C)CCC(C)(C)c2cc(NC(=O)c3ccc(C(=O)O)cc3)ccc21
Result :: 7.33
